Reference source: the supplement of paper PMC7877785

assay: self-splicing fitness, log relative to wild type (ln ratio); higher = more splicing; Tetrahymena group I intron in knt gene, E. coli kanamycin selection, DiMSum; sequences stand for … in CUCUCU…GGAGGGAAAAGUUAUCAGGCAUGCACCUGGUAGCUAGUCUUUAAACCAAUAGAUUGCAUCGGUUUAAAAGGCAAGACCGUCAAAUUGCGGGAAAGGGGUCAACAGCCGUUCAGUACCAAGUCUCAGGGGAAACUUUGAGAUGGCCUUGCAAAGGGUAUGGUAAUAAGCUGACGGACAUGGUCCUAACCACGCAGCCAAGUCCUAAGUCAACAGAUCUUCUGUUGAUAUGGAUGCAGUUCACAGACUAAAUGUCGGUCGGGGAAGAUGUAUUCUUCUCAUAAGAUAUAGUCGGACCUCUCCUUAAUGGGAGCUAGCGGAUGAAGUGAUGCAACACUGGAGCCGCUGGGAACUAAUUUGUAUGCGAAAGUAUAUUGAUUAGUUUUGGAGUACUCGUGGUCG; conditions: 37 °C;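 note: selection with 25 µg/mL kanamycin versus none on LB agar overnight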
Documented self-splicing fitness (ln) across a set of sequences
recorded metric: self-splicing fitness (ln)

• AUAAAGCAAUAUUACGCGCC = -0.473
• CAGUAGCAAUAUUACGGCAU = -1.78
• ACGUAGCAAUAUUACGUUCA = -0.777
• UAAUAGCAAUAUUACGAGUG = -0.572
• CGAAAGCAAUAUUACGGUCU = -0.209
• CGGUAGCAAUAUUACGUAUG = 0.297
• GUCGAGCAAUAUUACGCGUG = -1.24
• GCUCAGCAAUAUUACGACAU = -0.159
• GAGCAGCAAUAUUACGAAUA = -1.8
• CGGUAGCAAUAUUACGUACG = -0.879
• GUACAGCAAUAUUACGCGAC = -1.87
• GGGUAGCAAUAUUACGAUAU = -0.0772
• GCGAAGCAAUAUUACGUUCC = -2.29
• AUAGAGCAAUAUUACGUCAA = -1.77
• ACGCAGCAAUAUUACGAUUC = -1.43
• CACUAGCAAUAUUACGGAAC = -1.93
• GGGAAGCAAUAUUACGUUGA = -1.94
• GUGAAGCAAUAUUACGAAGA = -1.11
• GGGGAGCAAUAUUACGCGUG = -1.96
• CAUGAGCAAUAUUACGAUUG = -3.15
• UCGGAGCAAUAUUACGGUUU = -1.87
• CUGCAGCAAUAUUACGGCGA = -0.847
• CGUCAGCAAUAUUACGGGUU = -2.56
• CUCUAGCAAUAUUACGGUAU = -2.77
• GUCAAGCAAUAUUACGAAGU = -1.16
